Reference for the values: patent US20240024520A1

Kindly supply the reported koff values for the records listed here.
Target: T1, human complement component C5 (human, UniProt P01031 19-673; P01031 678-1676)
T1 construct: mature; Mature C5 is a disulphide-linked beta and alpha chain cut from one precursor; Terbium-labelled in the FRET assays, biotinylated in part of the phage ELISA; also called human C5; C5-Tb
T1 sequence (P01031 19-673 limits assumed, chain 1 of 2): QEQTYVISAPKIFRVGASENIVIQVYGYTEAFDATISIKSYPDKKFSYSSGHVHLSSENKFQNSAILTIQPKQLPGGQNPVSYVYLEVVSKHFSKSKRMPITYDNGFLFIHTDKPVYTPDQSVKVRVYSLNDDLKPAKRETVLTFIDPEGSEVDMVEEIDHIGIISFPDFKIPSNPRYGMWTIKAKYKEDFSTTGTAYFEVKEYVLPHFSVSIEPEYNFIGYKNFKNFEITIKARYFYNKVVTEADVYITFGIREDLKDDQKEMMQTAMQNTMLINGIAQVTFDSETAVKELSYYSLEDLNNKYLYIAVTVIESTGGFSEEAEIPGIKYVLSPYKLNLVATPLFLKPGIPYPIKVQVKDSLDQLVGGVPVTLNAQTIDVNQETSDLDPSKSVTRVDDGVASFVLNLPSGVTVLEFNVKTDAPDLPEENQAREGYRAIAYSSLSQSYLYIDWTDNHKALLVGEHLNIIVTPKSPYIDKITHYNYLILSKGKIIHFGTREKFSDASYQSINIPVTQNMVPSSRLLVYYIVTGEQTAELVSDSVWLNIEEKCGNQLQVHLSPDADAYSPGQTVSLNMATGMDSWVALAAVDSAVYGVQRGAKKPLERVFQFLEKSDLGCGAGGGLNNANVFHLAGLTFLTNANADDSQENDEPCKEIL
T1 sequence (P01031 678-1676 limits assumed, chain 2 of 2): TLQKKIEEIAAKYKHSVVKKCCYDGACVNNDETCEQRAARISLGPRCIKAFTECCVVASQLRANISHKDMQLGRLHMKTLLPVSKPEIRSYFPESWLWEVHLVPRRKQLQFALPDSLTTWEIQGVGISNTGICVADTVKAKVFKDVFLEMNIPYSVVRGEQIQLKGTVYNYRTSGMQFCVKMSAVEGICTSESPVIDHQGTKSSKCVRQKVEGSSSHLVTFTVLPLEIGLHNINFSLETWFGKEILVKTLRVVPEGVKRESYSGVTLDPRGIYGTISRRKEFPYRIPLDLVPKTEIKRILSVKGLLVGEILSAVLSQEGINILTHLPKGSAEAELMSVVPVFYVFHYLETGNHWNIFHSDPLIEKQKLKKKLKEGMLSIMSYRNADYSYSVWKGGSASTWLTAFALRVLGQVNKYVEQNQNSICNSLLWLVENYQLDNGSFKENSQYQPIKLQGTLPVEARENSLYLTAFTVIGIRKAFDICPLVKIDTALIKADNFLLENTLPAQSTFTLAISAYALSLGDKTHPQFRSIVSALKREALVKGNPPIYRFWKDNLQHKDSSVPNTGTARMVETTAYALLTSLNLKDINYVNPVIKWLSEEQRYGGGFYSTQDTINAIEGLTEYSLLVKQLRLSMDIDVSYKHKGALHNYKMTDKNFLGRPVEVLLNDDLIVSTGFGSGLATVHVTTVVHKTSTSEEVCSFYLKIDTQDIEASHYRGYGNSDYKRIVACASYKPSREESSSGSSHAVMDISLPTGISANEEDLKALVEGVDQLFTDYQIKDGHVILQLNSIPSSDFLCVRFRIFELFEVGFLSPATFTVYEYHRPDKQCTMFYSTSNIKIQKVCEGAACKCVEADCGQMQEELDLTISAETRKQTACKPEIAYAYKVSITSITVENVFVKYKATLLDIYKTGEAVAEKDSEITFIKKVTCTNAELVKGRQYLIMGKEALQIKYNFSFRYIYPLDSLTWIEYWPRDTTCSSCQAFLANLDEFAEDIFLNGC
Assay: SPR multi-cycle kinetics, human C5 immobilised, mean of n=3
Ends that are not written are not given here.
Provide a numeric answer, followed by its unit.

Each binder below has a reported value. Please supply its koff.
1. TCPEGWSECGVAIYGYECGRWGCGHFLNSGPNISPYVST (also called chemical K92) [K92chemFE knob domain peptide]
2. VCPDGFNWGYGCAAGSSRFCTRHDWCCYDERADSHTYGFCTGNRV (disulfide (positions not given here); not fully specified, Disulphides formed in glutathione redox buffer; also called K8chemFE; K8chem) [K8 knob domain peptide, chemically synthesised, free energy method]

["0.000101 s⁻¹", "0.000385 s⁻¹"]
